Origin of values: PubChem BioAssay AID588519

target: Genome polyprotein (Poliovirus type 1 (strain Mahoney)); test: poliovirus RdRp elongation inhibitors, primary screen, biochemical, fluorescence polarization, total intensity (AID 588519); details: poliovirus polymerase elongation, measured here: FP z-score, stronger effect = lower value
Out of some 150,000 compounds screened, about 1,000 (0.67%) were called active. The list comes from a sample in which actives are over-represented; it also holds close analogues and randomly drawn compounds.
measurement-name: z-score

Examples with answers:
{"columns": ["compound", "z-score"],
 "data": [
  ["CCSc1nnc(NC(=O)/C=C/c2ccc3c(c2)OCCO3)s1", -3.6],
  ["COc1cccc(CN2CCc3nc(SCC(=O)Nc4ccccc4)[nH]c(=O)c3C2)c1", -0.1],
  ["CN1/C(=C/C(=S)C(C)(C)C)Sc2ccccc21", -1.7],
  ["CCSc1nnc(NC(=O)c2ccc(C)c(S(=O)(=O)N(CC)CC)c2)s1", -0.5],
  ["CCOc1ccccc1CNC(=O)Cn1ncc2c([nH]c3ccccc32)c1=O", -0.4]
]}

IN: Write z-score of O=C(Nc1ccc(Cl)cc1Cl)C1CC(=O)N(C2CCCCC2)C1 (stereo unspecified) ; system used: Genome polyprotein (Poliovirus type 1 (strain Mahoney))
OUT: 0.2

###

molecular target: Genome polyprotein (Poliovirus type 1 (strain Mahoney)); test: poliovirus RdRp elongation inhibitors, primary screen, biochemical, fluorescence polarization, total intensity (AID 588519); settings: poliovirus polymerase elongation, stronger effect = lower value, compound at 16.7 µg/mL
The whole screen tested about 150,000 compounds, of which about 1,000 (0.67%) were called active. The sample holds actives, similar compounds and a random draw of the others, so the mix is not that of the screen.
Recorded % elongation by entry
Just the number please, in %, no unit attached.

Examples with answers:
{"columns": ["molecule-smiles", "quantity-unit", "% elongation"],
 "data": [
  ["CCn1c(=O)c(=O)n(CC)c2cc(N3CCCCC3)c(NC(=O)c3ccccc3)cc21", "%", 101],
  ["O=C(Nc1cccc(Cl)c1)N1CCC(n2nnc3cc(F)ccc32)CC1", "%", 102],
  ["CCn1c(=O)c(=O)n(CC)c2cc(N3CCCCC3)c(NC(=O)c3ccc(Cl)cc3)cc21", "%", 90],
  ["O=C(O)/C(=C/C(=O)c1ccccc1)Nc1ccc(OC(F)(F)F)cc1", "%", 103]
]}

--- query ---
IN: Indicate the recorded % elongation value for this molecule: `CCn1c(=O)c(=O)n(CC)c2cc(N3CCCCC3)c(NC(=O)c3cccc(F)c3)cc21`
OUT: 104

###

target: Genome polyprotein (Poliovirus type 1 (strain Mahoney)) (UniProt P03300); experiment: poliovirus RdRp elongation inhibitors, primary screen, biochemical, fluorescence polarization, total intensity (AID 588519); conditions: poliovirus polymerase elongation, measured here: FP z-score, stronger effect = lower value
Sequence (P03300 1749-2209 limits assumed): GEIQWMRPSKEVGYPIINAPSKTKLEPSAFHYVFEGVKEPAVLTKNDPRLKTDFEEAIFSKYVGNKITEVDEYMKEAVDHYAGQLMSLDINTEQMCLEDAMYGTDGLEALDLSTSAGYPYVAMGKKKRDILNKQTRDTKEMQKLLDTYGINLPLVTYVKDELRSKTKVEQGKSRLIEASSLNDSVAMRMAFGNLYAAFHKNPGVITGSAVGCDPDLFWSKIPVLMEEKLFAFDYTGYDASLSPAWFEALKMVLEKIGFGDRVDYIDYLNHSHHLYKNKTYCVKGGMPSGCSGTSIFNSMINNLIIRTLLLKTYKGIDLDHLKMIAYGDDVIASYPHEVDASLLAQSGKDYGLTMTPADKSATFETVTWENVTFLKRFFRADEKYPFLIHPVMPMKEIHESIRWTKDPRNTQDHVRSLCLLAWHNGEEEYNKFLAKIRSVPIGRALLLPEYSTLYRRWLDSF
Out of some 150,000 compounds screened, about 1,000 (0.67%) were called active. The sample as a whole holds a higher share of actives than the screen did.
measurement-name: z-score

Examples with answers:
{"columns": ["molecule", "z-score"],
 "data": [
  ["O=C1CCC/C1=C1\\SCC(=O)N1c1ccccc1", -0.3],
  ["CCN(C(=O)CSc1nnc2scc(-c3cccc(OC)c3)n12)c1ccccc1", 0.2]
]}

--- query ---
IN: Indicate the recorded z-score value for this molecule: COC1CC(O[C@@H]2[C@H](C)[C@H](OC3OC(C)CC(N(C)C)C3OC(C)=O)[C@H](C)CC3(CO3)C(=O)[C@@H](C)C(OC(C)=O)[C@H](C)[C@H](C)OC(=O)[C@@H]2C)OC(C)C1OC(C)=O (stereo partly drawn)
OUT: 0.2
